Where do the numbers come from? From ChEMBL document CHEMBL4765445.

# tested_system: Mast/stem cell growth factor receptor Kit (Homo sapiens, UniProt P10721)
# Sequence (P10721 whole entry): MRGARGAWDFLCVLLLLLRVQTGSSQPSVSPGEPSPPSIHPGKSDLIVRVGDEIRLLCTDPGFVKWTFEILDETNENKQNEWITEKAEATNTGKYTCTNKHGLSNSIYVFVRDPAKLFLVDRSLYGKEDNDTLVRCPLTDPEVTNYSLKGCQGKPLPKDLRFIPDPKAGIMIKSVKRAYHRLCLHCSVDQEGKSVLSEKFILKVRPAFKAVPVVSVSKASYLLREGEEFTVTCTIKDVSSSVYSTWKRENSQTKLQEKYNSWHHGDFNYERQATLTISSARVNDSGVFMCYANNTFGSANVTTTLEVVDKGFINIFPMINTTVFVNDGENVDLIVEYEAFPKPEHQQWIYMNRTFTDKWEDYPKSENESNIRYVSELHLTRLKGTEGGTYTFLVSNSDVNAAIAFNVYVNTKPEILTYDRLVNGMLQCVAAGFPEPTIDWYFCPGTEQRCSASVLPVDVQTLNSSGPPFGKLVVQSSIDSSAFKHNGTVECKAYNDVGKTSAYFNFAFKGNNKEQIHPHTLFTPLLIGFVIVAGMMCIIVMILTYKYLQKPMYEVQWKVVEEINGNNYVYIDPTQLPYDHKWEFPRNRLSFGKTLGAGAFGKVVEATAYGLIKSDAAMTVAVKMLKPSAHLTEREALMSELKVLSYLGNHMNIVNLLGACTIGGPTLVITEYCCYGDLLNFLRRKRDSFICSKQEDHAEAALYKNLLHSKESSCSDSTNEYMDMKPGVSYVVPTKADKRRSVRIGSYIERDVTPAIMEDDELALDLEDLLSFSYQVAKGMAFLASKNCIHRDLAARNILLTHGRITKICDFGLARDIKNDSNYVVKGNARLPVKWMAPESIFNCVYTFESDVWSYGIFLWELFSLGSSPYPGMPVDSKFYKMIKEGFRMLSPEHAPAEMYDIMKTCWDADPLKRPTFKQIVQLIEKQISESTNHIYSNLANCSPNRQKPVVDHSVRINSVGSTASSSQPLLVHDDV
# procedure_summary: Inhibition of c-KIT (unknown origin)
metric_name: pIC50
One number for each entry, as −log10 of the molar value.

Query block: Look at this compound and give its reported pIC50. "COc1cc2ncnc(Oc3ccc(Nc4nccc5[nH]cc(-c6ccc(F)cc6)c(=O)c45)cc3)c2cc1OC"
Result block: 7.55

---

# tested_system: Vascular endothelial growth factor receptor 2 (Homo sapiens)
# Sequence (P35968 whole entry, the tested form may be a part): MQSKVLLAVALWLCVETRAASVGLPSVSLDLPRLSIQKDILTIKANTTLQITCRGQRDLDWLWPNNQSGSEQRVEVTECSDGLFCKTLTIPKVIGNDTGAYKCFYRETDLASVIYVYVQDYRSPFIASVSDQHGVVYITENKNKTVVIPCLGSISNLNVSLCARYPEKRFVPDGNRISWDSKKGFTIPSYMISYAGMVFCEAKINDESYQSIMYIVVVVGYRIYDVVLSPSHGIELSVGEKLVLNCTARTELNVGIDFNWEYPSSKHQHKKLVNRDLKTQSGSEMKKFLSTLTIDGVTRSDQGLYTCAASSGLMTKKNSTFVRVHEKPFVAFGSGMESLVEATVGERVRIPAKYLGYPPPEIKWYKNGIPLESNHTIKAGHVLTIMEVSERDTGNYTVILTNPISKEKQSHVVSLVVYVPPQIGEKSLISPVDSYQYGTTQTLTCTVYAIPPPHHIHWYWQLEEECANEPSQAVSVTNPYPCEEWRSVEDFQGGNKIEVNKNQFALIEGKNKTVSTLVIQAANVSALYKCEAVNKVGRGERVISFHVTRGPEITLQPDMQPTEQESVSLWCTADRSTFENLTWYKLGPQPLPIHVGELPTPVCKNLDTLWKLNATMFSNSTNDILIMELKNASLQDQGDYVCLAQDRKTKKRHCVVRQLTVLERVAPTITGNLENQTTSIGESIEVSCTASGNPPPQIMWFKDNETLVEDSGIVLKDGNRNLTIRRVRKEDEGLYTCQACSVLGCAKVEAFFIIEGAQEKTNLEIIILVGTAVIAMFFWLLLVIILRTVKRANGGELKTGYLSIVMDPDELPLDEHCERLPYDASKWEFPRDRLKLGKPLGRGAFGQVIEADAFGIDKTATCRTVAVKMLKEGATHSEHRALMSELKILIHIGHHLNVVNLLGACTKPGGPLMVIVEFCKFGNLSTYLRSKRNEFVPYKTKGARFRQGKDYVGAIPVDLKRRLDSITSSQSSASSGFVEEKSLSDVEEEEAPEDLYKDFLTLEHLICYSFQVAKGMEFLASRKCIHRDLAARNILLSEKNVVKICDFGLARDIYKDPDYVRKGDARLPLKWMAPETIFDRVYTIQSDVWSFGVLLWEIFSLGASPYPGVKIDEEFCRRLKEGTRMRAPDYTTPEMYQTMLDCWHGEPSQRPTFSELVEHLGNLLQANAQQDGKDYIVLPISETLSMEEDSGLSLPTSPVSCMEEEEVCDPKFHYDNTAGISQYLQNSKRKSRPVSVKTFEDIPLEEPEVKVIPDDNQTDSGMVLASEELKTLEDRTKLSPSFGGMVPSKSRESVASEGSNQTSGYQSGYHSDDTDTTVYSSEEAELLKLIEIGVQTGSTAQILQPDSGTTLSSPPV
# procedure_summary: Inhibition of recombinant VEGFR2 kinase domain (unknown origin)
metric_name: pIC50
Answers are plain numbers, as −log10 of the molar value.

O=c1c(-c2ccc(F)cc2)c[nH]c2ccnc(Nc3ccc(Oc4ncnc5cc6c(cc45)OCCOCCOCCO6)c(F)c3)c12 | 7.32

Let us examine a further case.
Query block: Could you tell me which pIC50 is on file for "COc1cc2c(Oc3ccc(Nc4nccc5[nH]cc(-c6ccc(F)cc6)c(=O)c45)cc3F)ncnc2cc1OCCO.Cc1ccc(S(=O)(=O)O)cc1" ?
Result block: 7.66

---

# procedure_summary: Cmax in nude mouse xenografted with human U-87 MG cells at 75 mg/kg, po administered once daily for 3 weeks
# Assay type: ADME, organism-based
# Parameters: route oral, time 3 weeks, dose 75 mg/kg
# condition_info: in vivo
metric_name: Cmax
Note to self: number, then unit, no commentary.

Query block: For the compound shown here, "COc1cc2ncnc(Oc3ccc(Nc4nccc5[nH]cc(-c6ccc(F)cc6)c(=O)c45)cc3)c2cc1OC" , give the reported Cmax.
Result block: 16000 ng/mL

---

# procedure_summary: Cmax in rat at 5 mg/kg, iv
# Type: ADME, organism-based
# Set-up: route intravenous, dose 5 mg/kg
# condition_info: in vivo
metric_name: Cmax (ng/mL)
Answers are plain numbers, in ng/mL.

Query block: GET /values?readout=Cmax&item= "COc1cc2ncnc(Oc3ccc(Nc4nccc5[nH]cc(-c6ccc(F)cc6)c(=O)c45)cc3)c2cc1OC"
Result block: 44000

---

# tested_system: Hepatocyte growth factor receptor (Homo sapiens)
# Sequence (P08581 whole entry, the tested form may be a part): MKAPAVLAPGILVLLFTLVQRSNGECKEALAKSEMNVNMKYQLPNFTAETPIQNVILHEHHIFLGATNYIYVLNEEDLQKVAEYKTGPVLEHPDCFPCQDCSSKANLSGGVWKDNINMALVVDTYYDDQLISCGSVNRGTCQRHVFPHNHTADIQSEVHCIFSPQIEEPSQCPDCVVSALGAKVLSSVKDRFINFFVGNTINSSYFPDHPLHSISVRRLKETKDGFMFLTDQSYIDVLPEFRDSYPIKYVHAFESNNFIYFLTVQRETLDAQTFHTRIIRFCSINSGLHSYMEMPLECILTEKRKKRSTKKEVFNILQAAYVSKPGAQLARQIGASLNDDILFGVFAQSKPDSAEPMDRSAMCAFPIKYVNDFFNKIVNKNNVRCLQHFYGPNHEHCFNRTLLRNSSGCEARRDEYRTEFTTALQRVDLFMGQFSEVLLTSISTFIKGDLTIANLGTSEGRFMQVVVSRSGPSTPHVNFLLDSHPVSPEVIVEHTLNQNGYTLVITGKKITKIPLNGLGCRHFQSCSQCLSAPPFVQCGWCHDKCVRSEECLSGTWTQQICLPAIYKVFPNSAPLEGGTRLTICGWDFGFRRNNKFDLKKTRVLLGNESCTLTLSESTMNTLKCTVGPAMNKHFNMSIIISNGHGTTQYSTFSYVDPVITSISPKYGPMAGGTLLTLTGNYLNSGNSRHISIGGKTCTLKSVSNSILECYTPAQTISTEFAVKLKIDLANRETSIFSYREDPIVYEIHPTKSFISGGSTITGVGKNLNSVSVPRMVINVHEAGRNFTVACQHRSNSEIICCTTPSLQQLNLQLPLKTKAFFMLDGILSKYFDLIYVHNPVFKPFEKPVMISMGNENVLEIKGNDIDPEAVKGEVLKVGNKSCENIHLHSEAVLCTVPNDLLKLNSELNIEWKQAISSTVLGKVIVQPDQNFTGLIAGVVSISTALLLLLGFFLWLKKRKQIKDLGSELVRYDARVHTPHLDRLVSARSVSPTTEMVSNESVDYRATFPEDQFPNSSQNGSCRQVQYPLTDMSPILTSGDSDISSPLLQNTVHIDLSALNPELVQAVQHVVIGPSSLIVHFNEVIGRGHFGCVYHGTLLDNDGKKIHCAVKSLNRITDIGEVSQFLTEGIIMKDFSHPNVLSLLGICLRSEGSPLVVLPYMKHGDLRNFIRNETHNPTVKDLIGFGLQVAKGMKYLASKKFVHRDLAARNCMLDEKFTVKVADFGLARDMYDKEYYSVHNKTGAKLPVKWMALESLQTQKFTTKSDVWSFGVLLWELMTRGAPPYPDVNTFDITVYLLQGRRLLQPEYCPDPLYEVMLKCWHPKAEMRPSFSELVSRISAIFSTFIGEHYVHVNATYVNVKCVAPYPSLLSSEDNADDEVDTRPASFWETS
# procedure_summary: Inhibition of recombinant MET kinase domain (unknown origin)
metric_name: pIC50
Numbers only, as −log10 of the molar value.

A selection of reference data follows.
COc1cc2c(Oc3ccc(Nc4nccc5[nH]cc(-c6ccc(F)cc6)c(=O)c45)cc3F)ncnc2cc1OCCO.Cc1ccc(S(=O)(=O)O)cc1 | 7.86
CCn1cc(-c2ccc(F)cc2)c(=O)c2c(Nc3ccc(Oc4ncnc5cc(OC)c(OC)cc45)c(F)c3)nccc21 | 7.54
COc1cc2c(Oc3ccc(Nc4nccc5[nH]cc(-c6ccc(F)cc6)c(=O)c45)cc3F)ncnc2cc1OCC(C)(C)O | 7.19
COc1cc2ncnc(Oc3ccc(Nc4nccc5c4c(=O)c(-c4ccc(F)cc4)cn5CC(=O)c4ccccc4)cc3F)c2cc1OC | 6.71
COc1cc2c(Oc3ccc(Nc4nccc5[nH]cc(-c6ccc(F)cc6)c(=O)c45)cc3F)ncnc2cc1OCCCN1CCOCC1 | 7.66

List the reported pIC50 of each molecule below.
1. CCN(CC)CCCOc1cc2c(Oc3ccc(Nc4nccc5[nH]cc(-c6ccc(F)cc6)c(=O)c45)cc3F)ncnc2cc1OC
2. COCCn1cc(-c2ccc(F)cc2)c(=O)c2c(Nc3ccc(Oc4ncnc5cc(OC)c(OC)cc45)c(F)c3)nccc21
3. COc1cc2c(Oc3ccc(Nc4nccc5[nH]cc(-c6ccc(F)cc6)c(=O)c45)cc3F)ncnc2cc1OCC1CCN(C)CC1

Result block:
1: 8.03; 2: 6.79; 3: 7.81

Below are 6 molecules. Give each one its pIC50.
1. COc1cc2ncnc(Oc3ccc(Nc4nccc5[nH]cc(-c6ccc(F)cc6)c(=O)c45)cc3F)c2cc1OCCCN1CCOCC1
2. COc1cc2c(Oc3ccc(Nc4nccc5[nH]cc(-c6ccc(F)cc6)c(=O)c45)cc3F)ncnc2cc1OCCN1CCOCC1
3. COc1cc2ncnc(Oc3ccc(Nc4nccc5[nH]c(C)c(-c6ccc(F)cc6)c(=O)c45)cc3F)c2cc1OC
4. COc1cc2ncnc(Oc3ccc(Nc4nccc5[nH]cc(-c6ccc(F)cc6)c(=O)c45)cc3)c2cc1OC
5. COc1cc2ncnc(Oc3ccc(Nc4nccc5[nH]cc(-c6ccc(F)cc6)c(=O)c45)cc3F)c2cc1OCCCN1CCCCC1
6. O=c1c(-c2ccc(F)cc2)c[nH]c2ccnc(Nc3ccc(Oc4ncnc5cc6c(cc45)OCCOCCOCCO6)c(F)c3)c12

Result block:
1: 7.63; 2: 7.61; 3: 6.64; 4: 8.05; 5: 7.81; 6: 8.02

Hey, quick one: what's pIC50 for each of these?
1. COc1cc2c(Oc3ccc(Nc4nccc5[nH]cc(-c6ccc(F)cc6)c(=O)c45)cc3F)ncnc2cc1OCCCO
2. COc1cc2ncnc(Oc3ccc(Nc4nccc5c4c(=O)c(-c4ccc(F)cc4)cn5C)cc3F)c2cc1OC
3. COCCOc1cc2ncnc(Oc3ccc(Nc4nccc5[nH]cc(-c6ccc(F)cc6)c(=O)c45)cc3F)c2cc1OC
4. COCCOc1cc2c(Oc3ccc(Nc4nccc5[nH]cc(-c6ccc(F)cc6)c(=O)c45)cc3F)ncnc2cc1OC

Result block:
1. 7.41
2. 8.15
3. 7.38
4. 7.44
